target: human TAS2R14 (Homo sapiens, UniProt Q9NYV8); construct: expressed in transfected cells; host or cells: HEK293T-Gα16gust44; assay: Calcium imaging assay (FLIPR), HEK293T-Gα16gust44 cells transfected with human TAS2R14; assay type: cell-based; settings: TAS2R14 trace; Time (s) 28.797 (Chenodeoxycholic Acid 28.781)
Note to self: use y only for RLU readings below 40 RLU; a reading exactly at 40 RLU still gets n.

Does the reported RLU of C[C@H](CCC(=O)O)[C@H]1CC[C@H]2[C@@H]3[C@H](O)C[C@@H]4C[C@H](O)CC[C@]4(C)[C@H]3CC[C@]12C stay below 40 RLU?
n

Strictly below 40 RLU in RLU? C[C@H](CCC(=O)NCCS(=O)(=O)O)[C@H]1CC[C@H]2[C@@H]3CC[C@@H]4C[C@H](O)CC[C@]4(C)[C@H]3CC[C@]12C
y

Field: below-cutoff. Rule: recorded RLU strictly less than 40 RLU. Subject: C[C@H](CCC(=O)O)[C@H]1CC[C@H]2[C@@H]3[C@H](O)C[C@@H]4C[C@H](O)CC[C@]4(C)[C@H]3C[C@H](O)[C@]12C
n

# check: RLU < 40 RLU for C[C@H](CCC(=O)NCC(=O)O)[C@H]1CC[C@H]2[C@@H]3[C@H](O)C[C@@H]4C[C@H](O)CC[C@]4(C)[C@H]3C[C@H](O)[C@]12C
y

Decide: RLU of C[C@H](CCC(=O)NCCS(=O)(=O)O)[C@H]1CC[C@H]2[C@@H]3[C@H](O)C[C@@H]4C[C@H](O)CC[C@]4(C)[C@H]3C[C@H](O)[C@]12C strictly below 40 RLU?
y

* * *

biological target: human TAS2R1 (Homo sapiens); construct: expressed in transfected cells; host or cells: HEK293T-Gα16gust44; experiment: Calcium imaging assay (FLIPR), HEK293T-Gα16gust44 cells transfected with human TAS2R1; assay type: cell-based; settings: calcium trace, sheet TAS2R1; Time 335.562 s
Sequence (Q9NYW7 whole entry): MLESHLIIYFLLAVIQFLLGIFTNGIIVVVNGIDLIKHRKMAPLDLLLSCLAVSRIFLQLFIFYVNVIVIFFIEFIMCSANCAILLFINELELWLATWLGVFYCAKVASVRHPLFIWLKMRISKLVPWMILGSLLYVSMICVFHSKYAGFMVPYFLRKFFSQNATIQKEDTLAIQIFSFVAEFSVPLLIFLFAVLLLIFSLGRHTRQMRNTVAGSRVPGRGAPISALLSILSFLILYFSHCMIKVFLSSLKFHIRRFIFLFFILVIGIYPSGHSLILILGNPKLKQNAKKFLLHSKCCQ
Would you mind telling me the reported RLU of each entry?
Report the figure in RLU without appending any unit label.

Quickly give me recorded RLU for C[C@H](CCC(=O)O)[C@H]1CC[C@H]2[C@@H]3CC[C@@H]4C[C@H](O)CC[C@]4(C)[C@H]3CC[C@]12C [Lithocholic Acid, lithocholic acid]
207.541

For the compound C[C@H](CCC(=O)O)[C@H]1CC[C@H]2[C@@H]3[C@H](O)C[C@@H]4C[C@H](O)CC[C@]4(C)[C@H]3C[C@H](O)[C@]12C [Cholic Acid, cholic acid] , give its reported RLU.
-20.5128

Respond only with RLU recorded for C[C@H](CCC(=O)O)[C@H]1CC[C@H]2[C@@H]3[C@H](O)C[C@@H]4C[C@H](O)CC[C@]4(C)[C@H]3CC[C@]12C [Chenodeoxycholic Acid, chenodeoxycholic acid]
104.786

Tell me its RLU given C[C@H](CCC(=O)O)[C@H]1CC[C@H]2[C@@H]3[C@@H](O)C[C@@H]4C[C@H](O)CC[C@]4(C)[C@H]3CC[C@]12C [Ursodeoxycholic Acid, ursodeoxycholic acid] as the entry.
-20.2182

* * *

Biological target: human TAS2R14 (Homo sapiens, UniProt Q9NYV8)
Construct: expressed in transfected cells; host or cells: HEK293T-Gα16gust44
Sequence (Q9NYV8 1-317): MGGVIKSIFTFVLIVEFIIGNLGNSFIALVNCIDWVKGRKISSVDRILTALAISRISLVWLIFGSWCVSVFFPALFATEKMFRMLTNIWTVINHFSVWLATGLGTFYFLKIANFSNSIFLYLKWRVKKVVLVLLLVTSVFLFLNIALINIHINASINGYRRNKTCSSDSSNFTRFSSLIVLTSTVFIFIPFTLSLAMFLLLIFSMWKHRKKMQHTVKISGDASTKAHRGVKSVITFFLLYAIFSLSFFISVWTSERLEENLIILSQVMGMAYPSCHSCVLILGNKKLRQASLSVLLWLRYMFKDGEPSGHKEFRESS
Assay: Calcium imaging assay (FLIPR), HEK293T-Gα16gust44 cells transfected with human TAS2R14
Assay type: cell-based
Conditions: TAS2R14 trace; Time (s) 245.578 (Taurocholic Acid 245.563, Chenodeoxycholic Acid 245.546)
property.measured: RLU (RLU)
Numeric answer only, unit RLU assumed.

Give RLU for the following molecule: C[C@H](CCC(=O)NCCS(=O)(=O)O)[C@H]1CC[C@H]2[C@@H]3CC[C@@H]4C[C@H](O)CC[C@]4(C)[C@H]3CC[C@]12C
124.983

Return the recorded RLU value; entry: C[C@H](CCC(=O)O)[C@H]1CC[C@H]2[C@@H]3[C@H](O)C[C@@H]4C[C@H](O)CC[C@]4(C)[C@H]3C[C@H](O)[C@]12C
438.571

Return RLU for the following molecule: C[C@H](CCC(=O)NCCS(=O)(=O)O)[C@H]1CC[C@H]2[C@@H]3[C@H](O)C[C@@H]4C[C@H](O)CC[C@]4(C)[C@H]3C[C@H](O)[C@]12C
303.535

Identify measured RLU corresponding to C[C@H](CCC(=O)NCC(=O)O)[C@H]1CC[C@H]2[C@@H]3[C@H](O)C[C@@H]4C[C@H](O)CC[C@]4(C)[C@H]3C[C@H](O)[C@]12C
428.616

Output measured RLU for this item: C[C@H](CCC(=O)O)[C@H]1CC[C@H]2[C@@H]3[C@H](O)C[C@@H]4C[C@H](O)CC[C@]4(C)[C@H]3CC[C@]12C
212.748

Source of measurements: paper PMC10247784
